- Test system: big ET-1-induced pressor responses (inhibition of ECE)
- Procedure text: In vivo study on pithed rats: big ET-1-induced pressor response
- Set-up: species or system Sprague-Dawley rats
- Measurement conditions: big ET-1 1 nmol/kg injection, product given by infusion
Where a name gives a salt, the structure may show the parent alone.
Observation type: IC50 with respect to big ET-1 (µg/kg/min)

> print(dat)
                                   compound  numeric.value
1  CCOC(=O)[C@H](Cc1c[nH]c2ccccc12)NC(=O)[C@H](CC(C)C)NP(=O)(O)OCCCN [Example 9, lithium salt]            200

(a) CCOC(=O)[C@H](Cc1c[nH]c2ccccc12)NC(=O)[C@H](CC(C)C)NP(=O)(O)OCCO [Example 3, disodium salt]
(b) CC(C)C[C@H](NP(=O)(O)OC(CO)CO)C(=O)N[C@@H](Cc1c[nH]c2ccccc12)C(=O)O [Example 8, dilithium salt]
Kindly identify which of a and b has the larger recorded IC50 with respect to big ET-1 value. The response must carry the label of the picked entry.
b
(b: 480 µg/kg/min, a: 280 µg/kg/min)
